Values from patent US20120214846A1

# tested.on: GR (Homo sapiens, UniProt P04150)
# Sequence (P04150 1-777): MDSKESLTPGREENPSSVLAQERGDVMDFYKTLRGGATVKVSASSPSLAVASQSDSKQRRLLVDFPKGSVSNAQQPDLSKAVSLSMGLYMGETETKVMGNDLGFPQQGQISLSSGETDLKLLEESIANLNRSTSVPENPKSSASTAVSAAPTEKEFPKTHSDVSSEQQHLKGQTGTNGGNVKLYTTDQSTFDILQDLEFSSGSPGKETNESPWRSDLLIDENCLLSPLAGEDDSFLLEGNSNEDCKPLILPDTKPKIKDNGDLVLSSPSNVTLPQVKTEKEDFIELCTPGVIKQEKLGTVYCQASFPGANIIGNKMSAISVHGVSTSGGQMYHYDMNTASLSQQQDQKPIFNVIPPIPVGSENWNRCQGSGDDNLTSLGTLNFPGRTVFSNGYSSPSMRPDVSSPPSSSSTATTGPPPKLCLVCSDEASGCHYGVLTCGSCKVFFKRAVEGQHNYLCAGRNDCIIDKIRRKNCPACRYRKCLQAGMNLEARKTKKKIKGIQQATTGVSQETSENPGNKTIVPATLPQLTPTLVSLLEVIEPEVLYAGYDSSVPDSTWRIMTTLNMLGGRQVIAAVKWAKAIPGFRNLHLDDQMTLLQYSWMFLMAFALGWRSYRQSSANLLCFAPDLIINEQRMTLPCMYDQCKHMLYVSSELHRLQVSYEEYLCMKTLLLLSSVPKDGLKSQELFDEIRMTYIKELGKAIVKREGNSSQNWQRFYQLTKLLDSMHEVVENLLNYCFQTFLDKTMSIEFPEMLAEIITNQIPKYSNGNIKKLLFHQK
# method.description: Trans-Activation Modulation of Glucocorticoid Receptor Assay (GRAMMER), MMTV-LUC reporter, A549 cells
# Format: cell-based
# Parameters: endogenous in cells
# condition.summary: A549 cells; inflection point; read-out: Transactivation A549 Cells GRAMMER IP
pEC50: −log10 of the molar value.
assay.metric: pEC50

> print(dat)
                                   compound  reading
1  Cc1ccnc(C(O)C[C@]2(O)CCC3=Cc4c(cnn4-c4ccc(F)cc4)C[C@@]32C)c1 (stereo partly shown)     6.79
2  COc1ccnc(C(O)C[C@]2(O)CCC3=Cc4c(cnn4-c4ccc(F)cc4)C[C@@]32C)c1 (stereo partly shown)     6.88
3  Cc1cccnc1C(O)C[C@]1(O)CCC2=Cc3c(cnn3-c3ccc(F)cc3)C[C@@]21C (single isomer, unassigned) [Example 1a]     6.94
4  C[C@]12Cc3cnn(-c4ccc(F)cc4)c3C=C1CC[C@@]2(O)CC(O)c1cc(Br)ccn1 (single isomer, unassigned) [Example 10b]     7.10

###

# Test system: female Sprague-Dawley rats, oxazolone (OX) contact dermatitis
# method.description: In Vivo Inflammation Assay (oxazolone contact dermatitis model)
# Parameters: key: +: the glucose level increased compared to vehicle; −: the glucose level decreased compared to vehicle
# condition.summary: Table 4, literature compounds; glucose effect
assay.metric: GL *

> print(dat)
                                   compound  reading
1  C[C@]12Cc3cnn(-c4ccc(F)cc4)c3C=C1CCC[C@@H]2[C@@H](O)c1ccccc1 [Ex. 35 WO 03/86294 A2, reference compound]        −
2  CO[C@@]1(CCc2ccccc2Cl)CCC2=Cc3c(cnn3-c3ccc(F)cc3)C[C@@]21C [Ex. 103 WO 04/075840 A2, reference compound]        +
3  C[C@]12Cc3cnn(-c4ccc(F)cc4)c3C=C1CCC[C@@H]2[C@@H](O)c1ccc(F)cc1 [Ex. 32 WO 03/086294 A2, reference compound]        +
4  C[C@]12Cc3cnn(-c4ccc(F)cc4)c3C=C1CCC[C@@H]2[C@@H](O)CCc1ccccc1 [Ex. 30 WO 03/086294 A2, reference compound]        −
5  C[C@]12Cc3cnn(-c4ccc(F)cc4)c3C=C1CCC[C@@H]2[C@@H](O)Cc1ccccc1 [Ex. 22 WO 03/086294 A2, reference compound]        −
6  C[C@]12Cc3cnn(-c4ccc(F)cc4)c3C=C1CC[C@@]2(O)C#Cc1ccccc1 [Ex. 1 WO 04/075840 A2, reference compound]        −

###

# tested.on: GR (Homo sapiens, UniProt P04150)
# method.description: Trans-Activation Modulation of Glucocorticoid Receptor Assay (GRAMMER), MMTV-LUC reporter, A549 cells
# Assay type: cell-based
# Parameters: endogenous in cells
# condition.summary: GRAMMER IP, Table 4, literature compounds
pEC50: −log10 of the molar value.
assay.metric: pEC50

> print(dat)
                                   compound                          tested.on  reading
1  C[C@]12Cc3cnn(-c4ccc(F)cc4)c3C=C1CCC[C@@H]2[C@@H](O)CCc1ccccc1 [Ex. 30 WO 03/086294 A2, reference compound]  GR (Homo sapiens, UniProt P04150)     6.78

###

# tested.on: GR (Homo sapiens)
# Sequence (P04150 1-777): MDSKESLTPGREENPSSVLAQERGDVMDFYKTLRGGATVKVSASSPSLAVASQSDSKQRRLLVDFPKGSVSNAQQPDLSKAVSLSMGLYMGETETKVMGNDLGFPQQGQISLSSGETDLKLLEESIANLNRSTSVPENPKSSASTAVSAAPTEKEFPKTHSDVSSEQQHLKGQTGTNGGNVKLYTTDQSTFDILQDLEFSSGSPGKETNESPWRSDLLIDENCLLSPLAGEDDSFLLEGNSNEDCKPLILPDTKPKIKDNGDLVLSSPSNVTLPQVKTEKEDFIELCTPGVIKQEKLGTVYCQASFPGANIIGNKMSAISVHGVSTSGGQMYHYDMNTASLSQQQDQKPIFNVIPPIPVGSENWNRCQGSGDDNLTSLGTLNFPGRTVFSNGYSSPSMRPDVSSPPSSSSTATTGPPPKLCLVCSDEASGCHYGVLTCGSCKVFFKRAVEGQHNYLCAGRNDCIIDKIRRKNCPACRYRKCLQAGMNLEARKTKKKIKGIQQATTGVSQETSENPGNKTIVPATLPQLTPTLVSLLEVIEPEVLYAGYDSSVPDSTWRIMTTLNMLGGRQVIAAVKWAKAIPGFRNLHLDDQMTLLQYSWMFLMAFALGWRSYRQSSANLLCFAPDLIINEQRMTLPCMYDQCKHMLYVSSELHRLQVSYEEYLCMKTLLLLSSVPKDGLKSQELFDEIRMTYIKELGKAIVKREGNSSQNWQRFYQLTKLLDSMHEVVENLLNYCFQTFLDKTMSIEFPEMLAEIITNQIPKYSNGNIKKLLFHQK
# method.description: Trans-Activation Modulation of Glucocorticoid Receptor Assay (GRAMMER), MMTV-LUC reporter, A549 cells
# Type: cell-based
# Design: endogenous in cells
# condition.summary: A549 cells; inflection point; read-out: Transactivation A549 Cells GRAMMER IP
pEC50: −log10 of the molar value.
Here the recorded pEC50 is given for each entry.
assay.metric: pEC50

> print(dat)
                                    compound  reading
 1  Cc1cccnc1C(O)C[C@]1(O)CCC2=Cc3c(cnn3-c3ccc(F)cc3)C[C@@]21C (single isomer, unassigned) [Example 1b]     6.63
 2  C[C@]12Cc3cnn(-c4ccc(F)cc4)c3C=C1CC[C@@]2(O)CC(O)c1cc(C#N)ccn1 (stereo partly shown) [Example 9]     6.80
 3  C[C@]12Cc3cnn(-c4ccc(F)cc4)c3C=C1CC[C@@]2(O)CC(O)c1ccccn1 (single isomer, unassigned) [Example 2a]     6.46
 4  C[C@]12Cc3cnn(-c4ccc(F)cc4)c3C=C1CC[C@@]2(O)CC(O)c1ccc(F)cn1 (single isomer, unassigned) [Example 7a]     6.49
 5  C[C@]12Cc3cnn(-c4ccc(F)cc4)c3C=C1CC[C@@]2(O)CC(O)c1cc(Cl)ccn1 (single isomer, unassigned) [Example 8b]     7.57
 6  C[C@]12Cc3cnn(-c4ccc(F)cc4)c3C=C1CC[C@@]2(O)CC(O)c1cc(Cl)ccn1 (single isomer, unassigned) [Example 8a]     6.89
 7  C[C@]12Cc3cnn(-c4ccc(F)cc4)c3C=C1CC[C@@]2(O)CC(O)c1cc(Br)ccn1 (single isomer, unassigned) [Example 10a]     7.76
 8  C[C@]12Cc3cnn(-c4ccc(F)cc4)c3C=C1CC[C@@]2(O)CC(O)c1ccc(C(F)(F)F)cn1 (stereo partly shown) [Example 6]     6.48
 9  C[C@]12Cc3cnn(-c4ccc(F)cc4)c3C=C1CC[C@@]2(O)CC(O)c1ccccn1 (single isomer, unassigned) [Example 2b]     6.59
10  C[C@]12Cc3cnn(-c4ccc(F)cc4)c3C=C1CC[C@@]2(O)CC(O)c1cc(C(F)(F)F)ccn1 (single isomer, unassigned) [Example 5a]     7.28
11  C[C@]12Cc3cnn(-c4ccc(F)cc4)c3C=C1CC[C@@]2(O)CC(O)c1ncccc1F (stereo partly shown) [Example 4]     6.16
12  C[C@]12Cc3cnn(-c4ccc(F)cc4)c3C=C1CC[C@@]2(O)CC(O)c1cc(C(F)(F)F)ccn1 (single isomer, unassigned) [Example 5b]     6.80
13  C[C@]12Cc3cnn(-c4ccc(F)cc4)c3C=C1CC[C@@]2(O)CC(O)c1ccc(F)cn1 (single isomer, unassigned) [Example 7b]     7.07
